organism: Rattus norvegicus; test: DrugMatrix - Regimen: Daily Repeat; assay type: toxicity, organism-based, Sprague-Dawley; design: regimen Daily Repeat, gender Male, age 6-8 weeks; conditions: in vivo, po, 0 mg/kg, 120 h, tissue Plasma, route oral GAVAGE, dose level Control, time 5 day, vehicle 100 % WATER
Quick reference for ALBUMIN among some compounds

compound: CN1CCN(C(=O)OC2c3nccnc3C(=O)N2c2ccc(Cl)cn2)CC1 (stereo unspecified) [ZOPICLONE]
ALBUMIN / G/DL: 4.07
//
compound: CC(C)(S)[C@@H](N)C(=O)O [PENICILLAMINE]
ALBUMIN / G/DL: 4.07
//
compound: C[C@]12Cc3c[nH]nc3C[C@@H]1CC[C@@H]1[C@@H]2CC[C@@]2(C)[C@H]1CC[C@]2(C)O [STANOZOLOL]
ALBUMIN / G/DL: 3.97
//
compound: Cn1cnc([N+](=O)[O-])c1Sc1ncnc2nc[nH]c12 [AZATHIOPRINE]
ALBUMIN / G/DL: 4.07
//
compound: Fc1ccc([C@@H]2CCNC[C@H]2COc2ccc3c(c2)OCO3)cc1 [PAROXETINE]
ALBUMIN / G/DL: 3.97
//
compound: CC1COc2c(N3CCN(C)CC3)c(F)cc3c(=O)c(C(=O)O)cn1c23 (stereo unspecified) [OFLOXACIN]
ALBUMIN / G/DL: 4.08

====

Quick reference for POTASSIUM among some compounds
species: Rattus norvegicus; test: DrugMatrix - Regimen: Daily Repeat; type: toxicity, organism-based, Sprague-Dawley; design: regimen Daily Repeat, gender Male, age 6-8 weeks; conditions: in vivo, po, 0 mg/kg, 120 h, tissue Plasma, route oral GAVAGE, dose level Control, time 5 day, vehicle .5 % CMC

compound: CCOC(=O)OC(C)OC1=C(C(=O)Nc2ccccn2)N(C)S(=O)(=O)c2ccccc21 (stereo not drawn) [AMPIROXICAM]
POTASSIUM: 6.09 MEQ/L

compound: Brc1ccccc1 [BROMOBENZENE]
POTASSIUM: 6.09 MEQ/L

compound: O=c1[nH]cc(F)c(=O)[nH]1 [FLUOROURACIL]
POTASSIUM: 6.14 MEQ/L

====

Quick reference for LYMPHOCYTE among some compounds
species: Rattus norvegicus; experiment: DrugMatrix - Regimen: Daily Repeat; assay type: toxicity, organism-based, Sprague-Dawley; set-up: regimen Daily Repeat, gender Male, age 6-8 weeks; conditions: in vivo, po, 0 mg/kg, 120 h, tissue Blood, route oral GAVAGE, dose level Control, time 5 day, vehicle .5 % CMC

compound: CC1(C)[C@H]2CC[C@]1(C)C(=O)C2 [(-)-CAMPHOR]
LYMPHOCYTE, %: 90.5
//
compound: CC(/C=C1\SC(=S)N(CC(=O)O)C1=O)=C\c1ccccc1
LYMPHOCYTE, %: 88.33
//
compound: CN1CCC[C@@H]1CCO[C@](C)(c1ccccc1)c1ccc(Cl)cc1
LYMPHOCYTE, %: 88.33
//
compound: Cc1c(-c2ccccc2)oc2c(C(=O)OCCN3CCCCC3)cccc2c1=O [FLAVOXATE]
LYMPHOCYTE, %: 91.33

====

species on record: Rattus norvegicus; assay: DrugMatrix - Regimen: Daily Repeat; type: toxicity, organism-based, Sprague-Dawley; parameters: regimen Daily Repeat, gender Male, age 6-8 weeks; conditions: in vivo, po, 0 mg/kg, 120 h, tissue Blood, route oral GAVAGE, dose level Control, time 5 day, […]

compound: CC(C)(Oc1ccc(CCNC(=O)c2ccc(Cl)cc2)cc1)C(=O)O [BEZAFIBRATE]
MEAN CORPUSCULAR VOLUME / fL: 64.68

compound: C=CCN [ALLYLAMINE]
MEAN CORPUSCULAR VOLUME / fL: 70.13

compound: CC1=C(/C=C/C(C)=C/C=C/C(C)=C\C(=O)O)C(C)(C)CCC1 [ISOTRETINOIN]
MEAN CORPUSCULAR VOLUME / fL: 62.38

compound: CN(C)CCCC1(c2ccc(F)cc2)OCc2cc(C#N)ccc21 (centres undefined) [CITALOPRAM]
MEAN CORPUSCULAR VOLUME / fL: 64.93

compound: CC(C)n1c(/C=C/C(O)CC(O)CC(=O)O)c(-c2ccc(F)cc2)c2ccccc21 (centres undefined) [FLUVASTATIN]
MEAN CORPUSCULAR VOLUME / fL: 63.3

compound: CSc1ccc2c(c1)N(CCC1CCCCN1C)c1ccccc1S2 (centres undefined) [THIORIDAZINE]
MEAN CORPUSCULAR VOLUME / fL: 62.27

compound: COc1ccc2c(c1)c(CC(=O)OCC(=O)O)c(C)n2C(=O)c1ccc(Cl)cc1 [ACEMETACIN]
MEAN CORPUSCULAR VOLUME / fL: 61.45

compound: COC1=CC(=O)C[C@@H](C)[C@]12Oc1c(Cl)c(OC)cc(OC)c1C2=O [GRISEOFULVIN]
MEAN CORPUSCULAR VOLUME / fL: 61.97

compound: COCc1c(C(C)C)nc(C(C)C)c(/C=C/[C@@H](O)C[C@@H](O)CC(=O)O)c1-c1ccc(F)cc1 [CERIVASTATIN]
MEAN CORPUSCULAR VOLUME / fL: 63.52
